TESTED ON: BRD4 second bromodomain (BD2), D334-E460 (human, UniProt O60885-1 334-460)
PROCEDURE SUMMARY: ITC; peptide in the syringe titrated into protein in the cell; 15 °C; 50 mM HEPES pH 7.5, 150 mM NaCl; single binding site model
ASSAY CONTEXT: both partners purified
Where no end group is shown, it is not given here.
MEASURE: pKd
A value of pKd is the negative decimal logarithm of a concentration given in moles per litre.

Solved entries:
BINDER: LTNK(Ac)GHK(Ac)WKQ [DMTF1 K147ac/K150ac peptide]
pKd: 4.53
//
BINDER: RRRK(Ac)RFK(Ac)RHQ [FOXD3 K235ac/K238ac peptide]
pKd: 5.11

Entry under review: DGGK(Ac)SGK(Ac)APR [FOXO3 K242ac/K245ac peptide] . Reported pKd?
4.35

Endpoint output: pKd of IHCK(Ac)AGK(Ac)GRT [PTEN K125ac/K128ac peptide] . Value?
4.35

GET /values?readout=pKd&item= HFAK(Ac)ARK(Ac)VPS [FOXN3 K426ac/K429ac peptide]
4.59

Reference for the values: paper PMC6375729
